Measurement Notes: Determination of compound remaining in feces
Format: in vivo, rat
Condition Label: Sprague-Dawley, rat, faeces, po, 0.1 mg/kg, Rat 3; 0.1 mg/kg oral gavage; read-out: % Recovery ± SD from 72-hour fecal samples
Structures can show the parent of a compound that is named as a salt.
Value Kind: dose excreted (%)
Number in %, nothing else.

Tell us which dose excreted value is on record for CN1Cc2c(Cl)cc(Cl)cc2[C@H](c2cccc(S(=O)(=O)NCCOCCOCCNC(=O)NCCCCNC(=O)NCCOCCOCCNS(=O)(=O)c3cccc([C@@H]4CN(C)Cc5c(Cl)cc(Cl)cc54)c3)c2)C1 (single isomer, unassigned) [Example 202, bis-hydrochloride salt]
92.4

Tell us which dose excreted value is on record for CN1Cc2c(Cl)cc(Cl)cc2[C@H](c2cccc(S(=O)(=O)NCCOCCOCCNC(=O)Nc3ccc(NC(=O)NCCOCCOCCNS(=O)(=O)c4cccc([C@@H]5CN(C)Cc6c(Cl)cc(Cl)cc65)c4)cc3)c2)C1 (single isomer, unassigned) [Example 203, bis-hydrochloride salt]
104

----------
dose excreted values, listed per item
Measurement Notes: Determination of compound remaining in feces
Assay type: in vivo, rat
Condition Label: Sprague-Dawley, rat, faeces, po, 0.1 mg/kg, Rat 2; 0.1 mg/kg oral gavage; read-out: % Recovery ± SD from 72-hour fecal samples
Where a name gives a salt, the structure may show the parent alone.
Number in %, nothing else.

CN1Cc2c(Cl)cc(Cl)cc2[C@H](c2cccc(S(=O)(=O)NCCOCCOCCNC(=O)NCCCCNC(=O)NCCOCCOCCNS(=O)(=O)c3cccc([C@@H]4CN(C)Cc5c(Cl)cc(Cl)cc54)c3)c2)C1 (single isomer, unassigned) [Example 202, bis-hydrochloride salt]    90.5

Tell us which dose excreted value is on record for CN1Cc2c(Cl)cc(Cl)cc2[C@H](c2cccc(S(=O)(=O)NCCOCCOCCNC(=O)Nc3ccc(NC(=O)NCCOCCOCCNS(=O)(=O)c4cccc([C@@H]5CN(C)Cc6c(Cl)cc(Cl)cc65)c4)cc3)c2)C1 (single isomer, unassigned) [Example 203, bis-hydrochloride salt]
75.8

----------
Cmax values, listed per item
Measurement Notes: Determination of compound Cmax and AUC
Format: in vivo
Condition Label: rat; Sprague-Dawley rats, oral gavage, serum 0.5-4 h; actual oral dose (mg/kg) given

Use the examples below as a reference point.
CN(CC(=O)NCCOCCOCCNS(=O)(=O)c1ccc(C2CN(C)Cc3c(Cl)cc(Cl)cc32)cc1)CC(=O)NCCOCCOCCNS(=O)(=O)c1ccc(C2CN(C)Cc3c(Cl)cc(Cl)cc32)cc1 (stereo not drawn) [Example 185, tris(2,2,2-trifluoroacetate)]    < 2 ng/mL
CN1Cc2c(Cl)cc(Cl)cc2C(c2cccc(S(=O)(=O)NCCOCCOCCOCCNC(=O)c3ccccc3C(=O)NCCOCCOCCOCCNS(=O)(=O)c3cccc(C4CN(C)Cc5c(Cl)cc(Cl)cc54)c3)c2)C1 (stereo not drawn) [Example 230]    < 5 ng/mL

Tell us which Cmax value is on record for CN1Cc2c(Cl)cc(Cl)cc2C(c2cccc(NC(=O)CCOCCOCCOCCNC(=O)[C@H](O)[C@@H](O)C(=O)NCCOCCOCCOCCC(=O)Nc3cccc(C4CN(C)Cc5c(Cl)cc(Cl)cc54)c3)c2)C1 (stereo partly drawn) [Example 179]
< 16 ng/mL

Tell us which Cmax value is on record for C/C(=C\c1cc(F)c(Oc2ccc(S(=O)(=O)NCCOCCOCCOCCNC(=O)[C@H](O)[C@@H](O)C(=O)NCCOCCOCCOCCNS(=O)(=O)c3ccc(Oc4c(F)cc(/C=C(\C)C(=O)N=C(N)N)cc4F)cc3)cc2)c(F)c1)C(=O)N=C(N)N [Example 212]
< 2.7 ng/mL

Tell us which Cmax value is on record for CN1Cc2c(Cl)cc(Cl)cc2C(c2ccc(S(=O)(=O)NCCOCCOCCNC(=O)C(O)C(O)C(=O)NCCOCCOCCNS(=O)(=O)c3ccc(C4CN(C)Cc5c(Cl)cc(Cl)cc54)cc3)cc2)C1 (stereo not drawn) [Example 205]
< 2 ng/mL

----------
System Tested: rat NHE-3 (Rattus norvegicus, UniProt P26433)
Construct: expressed in transfected cells; host or cells: Opossum kidney (OK) cells (ATCC), electroporated
Sequence (P26433 29-831): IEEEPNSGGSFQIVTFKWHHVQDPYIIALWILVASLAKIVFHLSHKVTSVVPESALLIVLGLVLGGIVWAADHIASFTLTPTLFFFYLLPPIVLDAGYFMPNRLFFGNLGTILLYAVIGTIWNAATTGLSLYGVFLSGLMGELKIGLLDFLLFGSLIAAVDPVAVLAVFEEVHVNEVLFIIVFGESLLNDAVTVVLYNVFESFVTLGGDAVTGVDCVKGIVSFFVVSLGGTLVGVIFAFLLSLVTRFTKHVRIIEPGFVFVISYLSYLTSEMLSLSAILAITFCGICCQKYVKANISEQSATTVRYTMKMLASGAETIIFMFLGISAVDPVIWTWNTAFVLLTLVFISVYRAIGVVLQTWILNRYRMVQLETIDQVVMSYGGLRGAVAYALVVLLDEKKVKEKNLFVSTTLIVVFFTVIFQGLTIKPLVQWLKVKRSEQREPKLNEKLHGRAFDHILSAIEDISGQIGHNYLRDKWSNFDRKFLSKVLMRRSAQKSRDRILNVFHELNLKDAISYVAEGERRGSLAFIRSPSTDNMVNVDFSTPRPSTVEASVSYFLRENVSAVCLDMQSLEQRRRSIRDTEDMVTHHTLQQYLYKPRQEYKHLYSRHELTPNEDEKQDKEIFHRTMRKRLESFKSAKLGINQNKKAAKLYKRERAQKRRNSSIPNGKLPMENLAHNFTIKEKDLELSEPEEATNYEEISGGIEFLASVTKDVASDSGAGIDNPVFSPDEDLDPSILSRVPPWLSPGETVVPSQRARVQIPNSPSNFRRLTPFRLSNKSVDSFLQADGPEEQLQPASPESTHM
Measurement Notes: Cell-based assay of NHE-3 activity (Pharmacological Test Example 1)
Condition Label: OK cells expressing rat NHE-3; 0-30 uM test compound, 5 uM EIPA
rat NHE-3 Average pIC50 values, listed per item

Use the examples below as a reference point.
Nc1cccc(C2CN(CCOCCOCCOCCN3Cc4c(Cl)cc(Cl)cc4C(c4cccc(N)c4)C3)Cc3c(Cl)cc(Cl)cc32)c1 (stereo not drawn) [Example 171]    <5.0
CN1Cc2c(Cl)cc(Cl)cc2C(c2cccc(S(=O)(=O)NCCOCCOCCOCCN)c2)C1 (stereo not drawn) [Example 28]    6 to 7
C/C(=C\c1cc(F)c(Oc2ccc(S(=O)(=O)NCc3ccc(CP(=O)(O)O)cc3)cc2)c(F)c1)C(=O)N=C(N)N [Example 52]    5 to 6
CN1Cc2c(Cl)cc(Cl)cc2C(c2ccc(S(=O)(=O)NCCOCCOCCNC(=O)COCC(=O)NCCOCCOCCNS(=O)(=O)c3ccc(C4CN(C)Cc5c(Cl)cc(Cl)cc54)cc3)cc2)C1 (stereo not drawn) [Example 178]    6 to 7

Tell us which rat NHE-3 Average pIC50 value is on record for CN1Cc2c(Cl)cc(Cl)cc2C(c2ccc(NS(=O)(=O)NCCP(=O)([O-])[O-])cc2)C1.[Na+].[Na+] (stereo not drawn) [Example 30]
5 to 6

Tell us which rat NHE-3 Average pIC50 value is on record for N=C(N)Nc1nc(-c2cccc(N3CCN(CCCN)CC3)c2)c2cc(Cl)ccc2n1 [Example 65]
6 to 7

Tell us which rat NHE-3 Average pIC50 value is on record for C/C(=C\c1cc(F)c(Oc2ccc(S(=O)(=O)NCCOCCOCCOCCN)cc2)c(F)c1)C(=O)N=C(N)N [Example 45]
6 to 7

Tell us which rat NHE-3 Average pIC50 value is on record for NC(N)=NCCCN1CCN(c2cccc(-c3nc(N=C(N)N)nc4ccc(Cl)cc34)c2)CC1 [Example 67]
6 to 7

Tell us which rat NHE-3 Average pIC50 value is on record for C/C(=C\c1cc(F)c(Oc2ccc(S(=O)(=O)NCCOCCOCCOCCOCCOCCOCCN)cc2)c(F)c1)C(=O)N=C(N)N [Example 211]
6 to 7

----------
System Tested: rat NHE-3 (Rattus norvegicus, UniProt P26433)
Construct: expressed in transfected cells; host or cells: Opossum kidney (OK) cells (ATCC), electroporated
Measurement Notes: Cell-based assay of NHE-3 activity (Pharmacological Test Example 1)
Condition Label: OK cells expressing rat NHE-3; 0-30 uM test compound, 5 uM EIPA
rat NHE-3 Average pIC50 values, listed per item

Use the examples below as a reference point.
NC(N)=Nc1nc(-c2ccc(N3CCN(CCO)CC3)cc2)c2cc(Cl)ccc2n1 [Example 69]    6 to 7
CN1Cc2c(Cl)cc(Cl)cc2C(c2ccc(S(=O)(=O)NCC(=O)NCC(=O)NCC(=O)NCCCCNC(=O)CNC(=O)CNC(=O)CNS(=O)(=O)c3ccc(C4CN(C)Cc5c(Cl)cc(Cl)cc54)cc3)cc2)C1 (stereo not drawn) [Example 204]    >7
CN1Cc2c(Cl)cc(Cl)cc2C(c2cccc(S(=O)(=O)NCCOCCOCCNCc3ccc(CNCCOCCOCCNS(=O)(=O)c4cccc(C5CN(C)Cc6c(Cl)cc(Cl)cc65)c4)cc3)c2)C1 (stereo not drawn) [Example 206]    >7
C/C(=C\c1cc(F)c(Oc2ccc(S(=O)(=O)NCCCP(=O)(O)O)cc2)c(F)c1)C(=O)N=C(N)N [Example 54]    5 to 6
N=C(N)Nc1nc(-c2cccc(N3CCN(CCC(=O)O)CC3)c2)c2cc(Cl)ccc2n1 [Example 64]    5 to 6

Tell us which rat NHE-3 Average pIC50 value is on record for CN1Cc2c(Cl)cc(Cl)cc2C(c2cccc(NS(=O)(=O)NCCP(=O)(O)O)c2)C1 (stereo not drawn) [Example 31]
5 to 6

----------
Measurement Notes: Parallel artificial membrane permeability assay (PAMPA)
Condition Label: pH 7.4
Papp A→B at 3 h, 20 uM values, listed per item
Number in ×10⁻⁶ cm/s, nothing else.

NC(N)=Nc1nc(-c2cccc(N3CCN(CCO)CC3)c2)c2cc(Cl)ccc2n1    0.35

Tell us which Papp A→B at 3 h, 20 uM value is on record for C/C(=C\c1cc(F)c(Oc2ccc(S(=O)(=O)Nc3ccc(P(=O)(O)O)cc3)cc2)c(F)c1)C(=O)N=C(N)N
0.2

Tell us which Papp A→B at 3 h, 20 uM value is on record for CN1Cc2c(Cl)cc(Cl)cc2C(c2cccc(NC(=O)N[C@@H](CCC(=O)O)C(=O)O)c2)C1 (stereo partly drawn)
0.1

Tell us which Papp A→B at 3 h, 20 uM value is on record for CCNC(=O)NS(=O)(=O)c1ccc(Oc2c(F)cc(/C=C(\C)C(=O)N=C(N)N)cc2F)cc1
0.45

Tell us which Papp A→B at 3 h, 20 uM value is on record for COCCNC(=O)NS(=O)(=O)c1ccc(Oc2c(F)cc(/C=C(\C)C(=O)N=C(N)N)cc2F)cc1
0.2

Every entry's value here was drawn from patent US20190374533A1.
